Would you mind telling me the reported apparent KD of MS2 coat protein of each entry?
- Tested on: MS2 coat protein
- PROTOCOL NOTES: apparent KD of MS2 coat protein; designed switch direction (-1 OFF switch, 1 ON switch): -1; higher = weaker reporter binding
- MEASUREMENT SETUP: Eterna round: R95; input ligand: microRNA oligo, concentration not stated
The response must be a number in nM with no trailing unit.

CCUCAGUAAGGAUAUCAGCUUAAGGAGGUGGUAAAGAGAGCUGAGAAGGUACAUGAGGAUCACCCAUGUUAAAA [Zatite] (puzzle: Exclusion 4) on MS2 coat protein gives apparent KD of MS2 coat protein = 44.9

GCAUCCAAAGUGAGGAUAUACCUCUGGAUACAGAGGUAGAAGGCACAUGAGGAUCACCCAUGUUCCUAGGAUGC [Fiskers BMX 4 - 38] (puzzle: Brourd's mod of Exclusion 4) on MS2 coat protein gives apparent KD of MS2 coat protein = 13.3

CCUCGACAUGAGGAUCACCCAUGUCAGGAUAUUGUGUCUCGGGUUUUUUACCGUUAGGCAAGAAGGGAUGUGUG [LRO-Excl1-14] (puzzle: Exclusion 1) on MS2 coat protein gives apparent KD of MS2 coat protein = 19.7

AAAAUGUAAGGAUAUAGCCGGAACCCAGGGUCAAUACCCGGCUAGAAGGUACAUGAGGAUCACCCAUGUAAGAA [Excls4-VI] (puzzle: Exclusion 4) on MS2 coat protein gives apparent KD of MS2 coat protein = 18.9

GAUCAACAUGAGGAUCACCCAUGUGAGGAUAUGUAUCAUAGAUCUUCGGAUCUAUGAUACAGAAGGCAUGUGAA [Ex1-3: 101] (puzzle: Exclusion 1) on MS2 coat protein gives apparent KD of MS2 coat protein = 67.8

CUGAUGUUAGGAUAUCAGGCGCCCGCCACUAGCAAGGCGCAUGAGAAGGGACAUGAGGAUCACCCAUGUAGUAA [Xexeonza] (puzzle: Exclusion 4) on MS2 coat protein gives apparent KD of MS2 coat protein = 27.7

CCAUGUUAGCAGGAUAUGCAAUAAAUCUUUUAAGCAGAAGGGCUUACAUGAGGAUCACCCAUGUAUAAUUUCAA [JR_E6_Sub080] (puzzle: Exclusion 6) on MS2 coat protein gives apparent KD of MS2 coat protein = 42.6

UUUAUAAUUUCAAUCUUCGCUGGCAAACUUACGCCAGCCACAUGAGGAUCACCCAUGUUUUUUGUUCGUUUUAUUCU [Xeinzarace] (puzzle: Sensor v3, turn-off variant 2) on MS2 coat protein gives apparent KD of MS2 coat protein = 49.8

UAUUUGUGAGGAUAUGAGUCGUAGAACAAUAGUACUACGUCUCAGAAGGUACAUGAGGAUCACCCAUGUUCCUC [Fiskers Ex 4 Super Stable 44 mod 31] (puzzle: Exclusion 4) on MS2 coat protein gives apparent KD of MS2 coat protein = 18.4

CUUGUCCGAGGAUAUAUUAUGUGAUACAUGAGGAUCACCCAUGUUAUAUGAUGGAUAUAAAUAGAAGGCGGACGAG [Mat - Exclusion 5 - JL mod - D68] (puzzle: Exclusion 5) on MS2 coat protein gives apparent KD of MS2 coat protein = 46.7

CUAUUACGAGGAUAUGAUUUAAAUAACAUGAGGAUCACCCAUGUUUUUACGUUAUUUUGUUUAGAAGGCGUAUUGU [JR_E5_Sub027] (puzzle: Exclusion 5) on MS2 coat protein gives apparent KD of MS2 coat protein = 55.5

AAGAAACAUGAGGAUCACCCAUGUGAGGAUAUGAAAAAGAAAAGAAAAGAAAGAAGAAUCAGAAGGCACAAAGU [salish99-ex1_r3_089] (puzzle: Exclusion 1) on MS2 coat protein gives apparent KD of MS2 coat protein = 25.9

GGUGCGUAUGUGAGGAUAUGCUGGUCCUUGGGUCAGCAGAAGGCACAUGAGGAUCACCCAUGUGGUGUCGUACC [salish99_Bmod_Ex4_026] (puzzle: Brourd's mod of Exclusion 4) on MS2 coat protein gives apparent KD of MS2 coat protein = 345

AUGAGGUUAGGAUAUACAUGAGGAUCACCCAUGUUGAAAGGUUAGAUAGGCGAAGCUGGUAGAAGGAACGGAGC [JR_Exclu3_Sub055] (puzzle: Exclusion 3) on MS2 coat protein gives apparent KD of MS2 coat protein = 29.8

UCGGCGCGAGGAUAUACGUUUGCUUUUUAGGAUCGUUGCGUACAUGAGGAUCACCCAUGUAGAAGGCGCGCCGC [Apr-15 SS2-27] (puzzle: Exclusion 2) on MS2 coat protein gives apparent KD of MS2 coat protein = 12.4

GGGUCACAUGAGGAUCACCCAUGUGAGGAUAUGAUACUAUGUACUUCGGUACAUAGUAUCAGAAGGCACAUAAA [Ex1-3: 18] (puzzle: Exclusion 1) on MS2 coat protein gives apparent KD of MS2 coat protein = 36.6

CCUUAGUCAGGAUAUUGAGGUAAAAGAAAAGAAAACGACAGCAAGAAGGGACAUGAGGAUCACCCAUGUAUAAA [Bequxeain] (puzzle: Exclusion 4) on MS2 coat protein gives apparent KD of MS2 coat protein = 30.1

AGUCGGCGAGGAUAUACAUGAGGAUCACCCAUGUAUGAUCCUAGACCUGUAGGUCCAUGUAGAAGGCGCUGACA [Exclusion 3 - Was a mod at one point v.3] (puzzle: Exclusion 3) on MS2 coat protein gives apparent KD of MS2 coat protein = 66.2

GGUGGACAUGAGGAUCACCCAUGUGAGGAUAUCGGCUGGUACGUGUUGGCUGGCUUCUCGAGAAGGCACAUAGU [Exclusion 1 V65] (puzzle: Exclusion 1) on MS2 coat protein gives apparent KD of MS2 coat protein = 45.9

CUUUAGCUAGGAUAUACAUGAGGAUCACCCAUGUUAGCGGUCCAUUGGGCCGCGGGUUGUAGAAGGAGCAUUAA [Azabeso] (puzzle: Exclusion 3) on MS2 coat protein gives apparent KD of MS2 coat protein = 25.3

AAAAGCAAGUAAAGAUUCUACAUGAGGAUCACCCAUGUGCUCGUCUUAUAAAGUACUAUCACGAAAGUGAUAGUACA [Sensor 3, v1 - 43] (puzzle: Sensor v3, turn-off variant 1) on MS2 coat protein gives apparent KD of MS2 coat protein = 124
